- target: UniProt:P33535
- Sequence (P33535 whole entry): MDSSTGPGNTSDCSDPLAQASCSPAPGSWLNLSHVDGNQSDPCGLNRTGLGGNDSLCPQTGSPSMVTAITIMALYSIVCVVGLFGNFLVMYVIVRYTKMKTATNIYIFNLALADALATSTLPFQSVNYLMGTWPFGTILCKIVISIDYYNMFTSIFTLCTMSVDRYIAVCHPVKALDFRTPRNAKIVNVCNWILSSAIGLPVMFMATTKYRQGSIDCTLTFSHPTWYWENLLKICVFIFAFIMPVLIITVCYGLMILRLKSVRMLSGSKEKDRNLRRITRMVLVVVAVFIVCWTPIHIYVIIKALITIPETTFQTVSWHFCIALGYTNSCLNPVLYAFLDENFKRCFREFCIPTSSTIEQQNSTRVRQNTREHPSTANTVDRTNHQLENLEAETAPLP
Non-standard residues stand in square brackets, D forms with d. Residues, ends and D or L forms follow the SMILES beside them. Dmt = Cc1cc(O)cc(C)c1C[C@H](N)C(=O)O; Tic = O=C(O)[C@@H]1Cc2ccccc2CN1

| compound | result modifier | Ki / nM |
| --- | --- | --- |
| N[C@@H](Cc1ccc(O)cc1)C(=O)N1Cc2ccccc2C[C@H]1C(=O)O (H-Tyr-[Tic]-OH) | > | 1000 |
| Cc1cc(O)cc(C)c1C[C@H](N)C(=O)N1Cc2ccccc2C[C@H]1C(=O)O (H-[Dmt]-[Tic]-OH) | = | 1360 |

---

The entries below are paired with their reported Ke.
- target: Delta-type opioid receptor (Mus musculus)
- test name: Antagonist activity at delta opioid receptor in mouse vas deferens assessed as inhibition of DPDPE-stimulated muscle contraction
- Type: functional, tissue-based
Non-standard residues stand in square brackets, D forms with d. Residues, ends and D or L forms follow the SMILES beside them. Phe(2,6-Me2,4-CONH2) = Cc1cc(C(N)=O)cc(C)c1C[C@H](N)C(=O)O; Dmt = Cc1cc(O)cc(C)c1C[C@H](N)C(=O)O; Tic = O=C(O)[C@@H]1Cc2ccccc2CN1

| compound | units | Ke |
| --- | --- | --- |
| N[C@@H](Cc1ccc(C(=O)NCCc2ccc(-c3ccccc3)cc2)cc1)C(=O)N1Cc2ccccc2C[C@H]1C(=O)O | nM | 17.8 |
| N[C@@H](Cc1ccc(O)cc1)C(=O)N1Cc2ccccc2C[C@H]1C(=O)O (H-Tyr-[Tic]-OH) | nM | 263 |
| N[C@@H](Cc1ccc(C(=O)NCCc2ccc(-c3ccccc3)cc2)cc1)C(=O)N1Cc2ccccc2C[C@H]1C(=O)N[C@@H](Cc1ccccc1)C(=O)O | nM | 18.7 |
| Cc1cc(O)cc(C)c1C[C@H](N)C(=O)N1Cc2ccccc2C[C@H]1C(=O)N[C@@H](Cc1ccccc1)C(=O)N[C@@H](Cc1ccccc1)C(=O)O (H-[Dmt][Tic]FF-OH) | nM | 0.196 |
| Cc1cc(C(=O)NCCc2ccc(-c3ccccc3)cc2)cc(C)c1C[C@H](N)C(=O)N1Cc2ccccc2C[C@H]1C(=O)O | nM | 1.76 |
| Cc1cc(C(N)=O)cc(C)c1C[C@H](N)C(=O)N1Cc2ccccc2C[C@H]1C(=O)N[C@@H](Cc1ccccc1)C(=O)N[C@@H](Cc1ccccc1)C(=O)O (H-[Phe(2,6-Me2,4-CONH2)][Tic]FF-OH) | nM | 0.627 |

---

- target: Delta-type opioid receptor (Rattus norvegicus)
- Sequence (P33533 whole entry): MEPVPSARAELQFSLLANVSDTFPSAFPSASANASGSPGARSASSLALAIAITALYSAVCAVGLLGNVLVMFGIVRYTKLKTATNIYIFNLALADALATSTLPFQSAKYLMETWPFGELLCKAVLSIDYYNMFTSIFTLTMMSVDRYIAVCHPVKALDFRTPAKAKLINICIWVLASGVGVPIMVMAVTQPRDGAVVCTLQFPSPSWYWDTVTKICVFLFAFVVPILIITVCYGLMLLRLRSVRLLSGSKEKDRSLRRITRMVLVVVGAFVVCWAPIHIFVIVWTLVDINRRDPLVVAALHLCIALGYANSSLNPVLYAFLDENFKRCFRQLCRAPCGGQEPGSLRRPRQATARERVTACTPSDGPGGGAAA
- test name: Displacement of [3H]DSLET from delta opioid receptor in rat brain membrane
Non-standard residues stand in square brackets, D forms with d. Residues, ends and D or L forms follow the SMILES beside them. Phe(2,6-Me2,4-CONH2) = Cc1cc(C(N)=O)cc(C)c1C[C@H](N)C(=O)O; Tic = O=C(O)[C@@H]1Cc2ccccc2CN1
test readout: Ki

| molecule | target | readout value |
| --- | --- | --- |
| N[C@@H](Cc1ccc(O)cc1)C(=O)N1Cc2ccccc2C[C@H]1C(=O)O (H-Tyr-[Tic]-OH) | Delta-type opioid receptor (Rattus norvegicus) | 242 nM |
| Cc1cc(C(N)=O)cc(C)c1C[C@H](N)C(=O)N1Cc2ccccc2C[C@H]1C(=O)N[C@@H](Cc1ccccc1)C(=O)N[C@@H](Cc1ccccc1)C(=O)O (H-[Phe(2,6-Me2,4-CONH2)][Tic]FF-OH) | Delta-type opioid receptor (Rattus norvegicus) | 0.501 nM |
